- Assayed Target: TRPM8 (Homo sapiens, UniProt Q7Z2W7)
- Sequence (Q7Z2W7 whole entry): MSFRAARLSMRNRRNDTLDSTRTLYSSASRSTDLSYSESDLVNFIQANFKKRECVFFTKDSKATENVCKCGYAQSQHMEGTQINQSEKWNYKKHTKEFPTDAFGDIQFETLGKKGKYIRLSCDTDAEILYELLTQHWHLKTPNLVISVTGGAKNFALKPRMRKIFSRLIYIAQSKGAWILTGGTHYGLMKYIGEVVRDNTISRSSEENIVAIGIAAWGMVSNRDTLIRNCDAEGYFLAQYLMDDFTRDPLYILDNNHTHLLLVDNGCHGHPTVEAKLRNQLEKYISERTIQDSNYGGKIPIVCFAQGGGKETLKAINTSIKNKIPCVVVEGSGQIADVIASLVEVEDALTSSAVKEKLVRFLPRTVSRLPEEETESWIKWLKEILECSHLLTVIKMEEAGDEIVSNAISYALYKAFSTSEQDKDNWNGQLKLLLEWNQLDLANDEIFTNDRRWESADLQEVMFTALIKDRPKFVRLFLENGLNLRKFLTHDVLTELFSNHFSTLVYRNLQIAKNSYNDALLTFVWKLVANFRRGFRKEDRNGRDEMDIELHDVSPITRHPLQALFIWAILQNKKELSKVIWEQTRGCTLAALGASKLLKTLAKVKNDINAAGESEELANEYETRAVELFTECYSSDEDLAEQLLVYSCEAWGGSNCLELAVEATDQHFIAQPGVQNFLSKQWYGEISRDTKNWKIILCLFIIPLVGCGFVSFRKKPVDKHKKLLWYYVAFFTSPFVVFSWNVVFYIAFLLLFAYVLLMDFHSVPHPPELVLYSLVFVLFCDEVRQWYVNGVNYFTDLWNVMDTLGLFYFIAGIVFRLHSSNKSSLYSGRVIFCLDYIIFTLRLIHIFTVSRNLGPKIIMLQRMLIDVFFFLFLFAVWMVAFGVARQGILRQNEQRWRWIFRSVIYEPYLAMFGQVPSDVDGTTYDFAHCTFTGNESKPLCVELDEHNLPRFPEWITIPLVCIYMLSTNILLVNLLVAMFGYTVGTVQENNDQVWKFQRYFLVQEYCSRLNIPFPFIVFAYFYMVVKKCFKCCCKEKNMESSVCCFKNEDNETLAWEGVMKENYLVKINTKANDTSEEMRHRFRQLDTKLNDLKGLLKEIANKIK
- Protocol Text: cell-based
pIC50: −log10 of the molar value.
Quantity Kind: pIC50

P: CCOC(=O)c1sc(-c2cccc(F)c2)nc1O [Compound 10]
Q: O=C(O)c1sc(-c2ccc(Cl)cc2)nc1OCc1ccc(Cl)cc1 [Compound 45]
When their pIC50 values are compared, which is larger, P or Q ? // respond with label for picked entry P
(P: 9.70, Q: 6.00)

---

- Assayed Target: TRPM8 (Homo sapiens)
- Protocol Text: HTS cell-based Ca2+ mobilization assay (FLIPR TETRA) in HEK293/hTRPM8 cells, agonist Cooling Agent 10
- Design: expressed in transfected cells
- Assay Conditions: HEK293/hTRPM8, Cooling Agent 10 at EC80
Quantity Kind: IC50

Form field: IC50 recorded for CCOC(=O)c1sc(-c2ccc(Cl)cc2)nc1NCCN [Compound 70] with TRPM8 (Homo sapiens) (enter value) < 10 µM

Form field: IC50 recorded for CCOC(=O)c1sc(-c2ccccc2)nc1OCc1ccc(Cl)cc1 [Compound 27] with TRPM8 (Homo sapiens) (enter value) < 10 µM

Form field: IC50 recorded for CCOC(=O)c1sc(-c2ccc(Cl)cc2)nc1OCCN [Compound 41] with TRPM8 (Homo sapiens) (enter value) < 10 µM

Form field: IC50 recorded for CCOC(=O)c1sc(-c2ccccc2)nc1OC(=O)c1ccc(C(F)(F)F)cc1 [Compound 36] with TRPM8 (Homo sapiens) (enter value) < 10 µM

Form field: IC50 recorded for CCOC(=O)c1sc(-c2cccc(F)c2)nc1O [Compound 10] with TRPM8 (Homo sapiens) (enter value) 1 µM

Form field: IC50 recorded for O=C(O)c1sc(-c2ccc(Cl)cc2)nc1OCc1ccc(Cl)cc1 [Compound 84] with TRPM8 (Homo sapiens) (enter value) < 10 µM

Form field: IC50 recorded for O=C(O)c1sc(-c2ccc(Cl)cc2)nc1O [Compound 1] with TRPM8 (Homo sapiens) (enter value) < 10 µM

Form field: IC50 recorded for O=C(O)c1sc(-c2ccc(Cl)cc2)nc1OCc1ccc(Cl)cc1 [Compound 45] with TRPM8 (Homo sapiens) (enter value) 0.0002 µM

***
Form field: IC50 recorded for Cc1ccc(-c2nc(OCc3ccc(Cl)cc3)c(C(=O)O)s2)cc1 [Compound 83] with TRPM8 (Homo sapiens) (enter value) < 10 µM

Form field: IC50 recorded for CCOC(=O)c1sc(-c2ccc(C)cc2)nc1NCCN [Compound 67] with TRPM8 (Homo sapiens) (enter value) < 10 µM

Form field: IC50 recorded for Cc1ccc(-c2nc(O)c(C(=O)O)s2)cc1 [Compound 2] with TRPM8 (Homo sapiens) (enter value) < 10 µM

Form field: IC50 recorded for CCOC(=O)c1sc(-c2ccc(Cl)cc2)nc1NCCNC [Compound 68] with TRPM8 (Homo sapiens) (enter value) < 10 µM
